# System: Escherichia coli TOP10;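 also: peptides expressed intracellularly from a pBAD plasmid library in pooled LB shake-flask culture, induced with 0.3% L-arabinose, DNA abundance read by NGS, three biological replicates, DESeq2 with apeglm shrinkage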
# Measurement protocol: shrunken log2 fold change of peptide-encoding DNA abundance (4.5 h post-induction vs induction); higher = less antimicrobial activity (less host growth inhibition)
# Assay setup: time post-induction: 4.5 h; library: site-saturation at positions 5, 18, 19, 20
Property: shrunken log2 fold change

The examples below pair each entry with its known result.
| Residue codes | Test target | Reported value |
| --- | --- | --- |
| RRIRWRPPRLPRPRPRPISFPRP | Escherichia coli TOP10 | 0.00901 |
| RRIRNRPPRLPRPRPRPVQPPRP | Escherichia coli TOP10 | 0.0494 |

Just so you know, measured shrunken log2 fold change for RRIRLRPPRLPRPRPRPVVQPRP came out at 0.0325

Just so you know, measured shrunken log2 fold change for RRIRKRPPRLPRPRPRPEMYPRP came out at 0.214

Just so you know, measured shrunken log2 fold change for RRIRARPPRLPRPRPRPHHMPRP came out at -0.715

Just so you know, measured shrunken log2 fold change for RRIRIRPPRLPRPRPRPFMAPRP came out at -0.397

Just so you know, measured shrunken log2 fold change for RRIRMRPPRLPRPRPRPHAYPRP came out at 0.0623

Just so you know, measured shrunken log2 fold change for RRIRMRPPRLPRPRPRPQCSPRP came out at 0.113
